Test system: KMS18 (cancer type: MM)
test.summary: normalized area under the dose-response curve (viability relative to DMSO control) (fraction); higher = less sensitive (more viable cells)
experimental.conditions: exposure time not given
readout.label: normalized area under the dose-response curve
API note: the answer field is a bare number with no unit suffix.

compound="C/C=C1\\NC(=O)[C@H]2CSSCC/C=C/[C@H](CC(=O)N[C@H](C(C)C)C(=O)N2)OC(=O)[C@H](C(C)C)NC1=O [Romidepsin]" assay_value=0.291
compound="CCN(CC)CCNC(=O)c1c(C)[nH]c(/C=C2\\C(=O)Nc3ccc(F)cc32)c1C [Sunitinib]" assay_value=0.665
compound="COc1cc2nccc(Oc3ccc(NC(=O)NC4CC4)c(Cl)c3)c2cc1C(N)=O [Lenvatinib]" assay_value=0.977
compound="CC(=O)O[C@H]1C(=O)[C@@]2(C)[C@H]([C@H](OC(=O)c3ccccc3)[C@]3(O)C[C@H](OC(=O)[C@H](O)[C@@H](NC(=O)c4ccccc4)c4ccccc4)C(C)=C1C3(C)C)[C@]1(OC(C)=O)CO[C@@H]1C[C@@H]2O [Paclitaxel]" assay_value=0.702
compound="COc1cc(C(=O)O)ccc1NC(=O)[C@@H]1N[C@@H](CC(C)(C)C)[C@](C#N)(c2ccc(Cl)cc2F)[C@H]1c1cccc(Cl)c1F [Idasanutlin]" assay_value=0.831
compound="Nc1nc(Cl)nc2c1ncn2[C@@H]1O[C@H](CO)[C@@H](O)[C@@H]1F [Clofarabine]" assay_value=0.794

The reported value for COc1cc(Nc2ncc3c(n2)-c2ccc(Cl)cc2C(c2c(F)cccc2OC)=NC3)ccc1C(=O)O [Alisertib] in terms of normalized area under the dose-response curve is 0.833

The reported value for Cc1ccc(C(=O)Nc2ccc(CN3CCN(C)CC3)c(C(F)(F)F)c2)cc1C#Cc1cnc2cccnn12 [Ponatinib] in terms of normalized area under the dose-response curve is 0.479

The reported value for CC(C)(C)c1cc(NC(=O)Nc2ccc(-c3cn4c(n3)sc3cc(OCCN5CCOCC5)ccc34)cc2)no1 [Quizartinib] in terms of normalized area under the dose-response curve is 0.737

The reported value for Nc1cc(C(F)(F)F)c(-c2cc(N3CCOCC3)nc(N3CCOCC3)n2)cn1 [Buparlisib] in terms of normalized area under the dose-response curve is 0.445

The reported value for Cc1cc(Nc2ncc(Cl)c(Nc3ccccc3S(=O)(=O)C(C)C)n2)c(OC(C)C)cc1C1CCNCC1 [Ceritinib] in terms of normalized area under the dose-response curve is 0.487

The reported value for C=CC(=O)Nc1cc(Nc2nccc(-c3cn(C)c4ccccc34)n2)c(OC)cc1N(C)CCN(C)C [Osimertinib] in terms of normalized area under the dose-response curve is 0.442

The reported value for O=C(/C=C\n1cnc(-c2cc(C(F)(F)F)cc(C(F)(F)F)c2)n1)NNc1cnccn1 [Selinexor] in terms of normalized area under the dose-response curve is 0.446

The reported value for O=C(c1ccc(F)c(F)c1Nc1ccc(I)cc1F)N1CC(O)([C@@H]2CCCCN2)C1 [Cobimetinib] in terms of normalized area under the dose-response curve is 0.588

The reported value for CO[C@H]1C[C@@H]2CC[C@@H](C)[C@@](O)(O2)C(=O)C(=O)N2CCCC[C@H]2C(=O)O[C@H]([C@H](C)C[C@@H]2CC[C@@H](OCCO)[C@H](OC)C2)CC(=O)[C@H](C)/C=C(\C)[C@@H](O)[C@@H](OC)C(=O)[C@H](C)C[C@H](C)/C=C/C=C/C=C/1C [Everolimus] in terms of normalized area under the dose-response curve is 0.617

* * *

System: KMS11 (cancer type: MM)
test.summary: normalized area under the dose-response curve (viability relative to DMSO control) (fraction); higher = less sensitive (more viable cells)
experimental.conditions: exposure time not given
Returns Criterion met if the recorded normalized area under the dose-response curve is greater than or equal to 0.6, and Criterion not met otherwise.

Worked examples follow.
molecule="COc1cc2nccc(Oc3ccc(NC(=O)C4(C(=O)Nc5ccc(F)cc5)CC4)cc3)c2cc1OC [Cabozantinib]" class_name="Criterion met"
molecule="Cc1nc(Nc2ncc(C(=O)Nc3c(C)cccc3Cl)s2)cc(N2CCN(CCO)CC2)n1 [Dasatinib]" class_name="Criterion met"

Q. Given COc1nc(N)nc2c1ncn2[C@@H]1O[C@H](CO)[C@@H](O)[C@@H]1O [Nelarabine] , state whether its normalized area under the dose-response curve is at least 0.6.
A. Criterion met

* * *

System: OCI-MY5/CRBN (cancer type: MM)
test.summary: normalized area under the dose-response curve (viability relative to DMSO control) (fraction); higher = less sensitive (more viable cells)
experimental.conditions: exposure time not given
Where a name gives a salt, the structure may show the parent alone.
The entries below come with measured normalized area under the dose-response curve values attached.
API note: the answer field is a bare number with no unit suffix.

Known results for compounds:
compound="Nc1nc(Cl)nc2c1ncn2[C@H]1C[C@H](O)[C@@H](CO)O1 [Cladribine]" assay_value=0.961
compound="C[C@@H](Oc1cc(-c2cnn(C3CCNCC3)c2)cnc1N)c1c(Cl)ccc(F)c1Cl [Crizotinib]" assay_value=0.75
compound="CC(C)(C)c1nc(-c2cccc(NS(=O)(=O)c3c(F)cccc3F)c2F)c(-c2ccnc(N)n2)s1 [Dabrafenib mesylate]" assay_value=0.906

Attention now turns to another entry.
Observed normalized area under the dose-response curve on OCI-MY5/CRBN (cancer type: MM), entry O=P1(N(CCCl)CCCl)NCCCO1 (centres undefined) [Cyclophosphamide] , equals 0.972

* * *

Tested on: EJM (cancer type: MM)
test.summary: normalized area under the dose-response curve (viability relative to DMSO control) (fraction); higher = less sensitive (more viable cells)
experimental.conditions: exposure time not given
Structures can show the parent of a compound that is named as a salt.
The entries below come with measured normalized area under the dose-response curve values attached.

compound=CCN(CC)CCNC(=O)c1c(C)[nH]c(/C=C2\C(=O)Nc3ccc(F)cc32)c1C assay_value=0.587

The reported value for Cc1ccc(Nc2nccc(N(C)c3ccc4c(C)n(C)nc4c3)n2)cc1S(N)(=O)=O [Pazopanib hydrochloride] in terms of normalized area under the dose-response curve is 0.861

The reported value for Cc1sc2c(c1C)C(c1ccc(Cl)cc1)=N[C@@H](CC(=O)OC(C)(C)C)c1nnc(C)n1-2 in terms of normalized area under the dose-response curve is 0.703

The reported value for COC(=O)c1ccc2c(c1)NC(=O)/C2=C(\Nc1ccc(N(C)C(=O)CN2CCN(C)CC2)cc1)c1ccccc1 in terms of normalized area under the dose-response curve is 0.784

The reported value for O=C(c1ccc(F)c(F)c1Nc1ccc(I)cc1F)N1CC(O)([C@@H]2CCCCN2)C1 in terms of normalized area under the dose-response curve is 0.54

The reported value for Cc1sc2c(c1C)C(c1ccc(Cl)cc1)=N[C@@H](CC(=O)Nc1ccc(O)cc1)c1nnc(C)n1-2 in terms of normalized area under the dose-response curve is 0.685

The reported value for CNC(=O)c1cc(Oc2ccc(NC(=O)Nc3ccc(Cl)c(C(F)(F)F)c3)c(F)c2)ccn1 in terms of normalized area under the dose-response curve is 0.589

The reported value for CC(=O)Nc1cccc(-n2c(=O)n(C3CC3)c(=O)c3c(Nc4ccc(I)cc4F)n(C)c(=O)c(C)c32)c1 in terms of normalized area under the dose-response curve is 0.838

The reported value for Cc1ccc(-n2nc(C(C)(C)C)cc2NC(=O)Nc2ccc(OCCN3CCOCC3)c3ccccc23)cc1 in terms of normalized area under the dose-response curve is 0.872

* * *

The entries below come with measured normalized area under the dose-response curve values attached.
Test system: AMO1 (cancer type: MM)
test.summary: normalized area under the dose-response curve (viability relative to DMSO control) (fraction); higher = less sensitive (more viable cells)
experimental.conditions: exposure time not given
API note: the answer field is a bare number with no unit suffix.

Known results for compounds:
compound=CO[C@H]1C[C@@H]2CC[C@@H](C)[C@@](O)(O2)C(=O)C(=O)N2CCCC[C@H]2C(=O)O[C@H]([C@H](C)C[C@@H]2CC[C@@H](OC(=O)C(C)(CO)CO)[C@H](OC)C2)CC(=O)[C@H](C)/C=C(\C)[C@@H](O)[C@@H](OC)C(=O)[C@H](C)C[C@H](C)/C=C/C=C/C=C/1C assay_value=0.695
compound=Nc1nc(Cl)nc2c1ncn2[C@H]1C[C@H](O)[C@@H](CO)O1 assay_value=0.672
compound="O=C(/C=C\\n1cnc(-c2cc(C(F)(F)F)cc(C(F)(F)F)c2)n1)NNc1cnccn1 [Selinexor]" assay_value=0.182

Attention now turns to another entry.
The reported value for COc1cc(N2CCC(N3CCN(C)CC3)CC2)ccc1Nc1ncc(Cl)c(Nc2ccccc2P(C)(C)=O)n1 in terms of normalized area under the dose-response curve is 0.525

* * *

Test system: MM1.R (cancer type: MM)
test.summary: normalized area under the dose-response curve (viability relative to DMSO control) (fraction); higher = less sensitive (more viable cells)
experimental.conditions: exposure time not given
Structures can show the parent of a compound that is named as a salt.
The entries below come with measured normalized area under the dose-response curve values attached.

Known results for molecules:
molecule="CO[C@H]1C[C@@H]2CC[C@@H](C)[C@@](O)(O2)C(=O)C(=O)N2CCCC[C@H]2C(=O)O[C@H]([C@H](C)C[C@@H]2CC[C@@H](OC(=O)C(C)(CO)CO)[C@H](OC)C2)CC(=O)[C@H](C)/C=C(\\C)[C@@H](O)[C@@H](OC)C(=O)[C@H](C)C[C@H](C)/C=C/C=C/C=C/1C [Temsirolimus]" study_system="MM1.R (cancer type: MM)" assay_value=0.68
molecule="CO[C@H]1C[C@@H]2CC[C@@H](C)[C@@](O)(O2)C(=O)C(=O)N2CCCC[C@H]2C(=O)O[C@H]([C@H](C)C[C@@H]2CC[C@@H](OCCO)[C@H](OC)C2)CC(=O)[C@H](C)/C=C(\\C)[C@@H](O)[C@@H](OC)C(=O)[C@H](C)C[C@H](C)/C=C/C=C/C=C/1C [Everolimus]" study_system="MM1.R (cancer type: MM)" assay_value=0.63
molecule="Cc1[nH]c2ccccc2c1CCNCc1ccc(/C=C/C(=O)NO)cc1 [Panobinostat]" study_system="MM1.R (cancer type: MM)" assay_value=0.35
molecule="CCCS(=O)(=O)Nc1ccc(F)c(C(=O)c2c[nH]c3ncc(-c4ccc(Cl)cc4)cc23)c1F [Vemurafenib]" study_system="MM1.R (cancer type: MM)" assay_value=0.97
molecule="N[C@@H](Cc1ccc(N(CCCl)CCCl)cc1)C(=O)O [Melphalan hydrochloride]" study_system="MM1.R (cancer type: MM)" assay_value=0.8
molecule="CC(C)(C)c1cc(NC(=O)Nc2ccc(-c3cn4c(n3)sc3cc(OCCN5CCOCC5)ccc34)cc2)no1 [Quizartinib]" study_system="MM1.R (cancer type: MM)" assay_value=0.69
molecule="C[C@@H]1C[C@H]2[C@@H]3CCC4=CC(=O)C=C[C@]4(C)[C@@]3(F)[C@@H](O)C[C@]2(C)[C@@]1(O)C(=O)CO [Dexamethasone]" study_system="MM1.R (cancer type: MM)" assay_value=0.94
molecule="CC(=O)Nc1cccc(-n2c(=O)n(C3CC3)c(=O)c3c(Nc4ccc(I)cc4F)n(C)c(=O)c(C)c32)c1 [Trametinib]" study_system="MM1.R (cancer type: MM)" assay_value=0.67

The reported value for CC1(C)CCC(CN2CCN(c3ccc(C(=O)NS(=O)(=O)c4ccc(NCC5CCOCC5)c([N+](=O)[O-])c4)c(Oc4cnc5[nH]ccc5c4)c3)CC2)=C(c2ccc(Cl)cc2)C1 [Venetoclax] in terms of normalized area under the dose-response curve is 0.48

The reported value for CC(C)C[C@H](NC(=O)CNC(=O)c1cc(Cl)ccc1Cl)B(O)O [Ixazomib] in terms of normalized area under the dose-response curve is 0.05

These entries and their values trace back to the supplement of paper PMC7214452.
